Data provenance is paper PMC5540273.

Tested on: HIPK3
Conditions: concentration: 1 μM,replicates: in singlicate; n = 1;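 note: KINOMEscan kinase panel screen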
value kind: %Inh (%)

molecule=C[C@@H]1CNc2c(sc3ccc4nc(-c5ccc(O)cc5)ccc4c23)C(=O)N1 test_result=21
molecule="COC(=O)c1cccc(NC(=O)NC2CCN(c3ccnc(Nc4cc(OC)c(OC)c(OC)c4)n3)C2)c1 (stereo not drawn)" test_result=6
molecule=CC(=O)c1c(-c2ccncc2)[nH]c(-c2ccncc2)c1C test_result=65
molecule=COc1cc2ncn(-c3cc(OCC4CCCCC4)c(C(N)=O)s3)c2cc1OC test_result=0
molecule=FC(F)(F)c1cc(Br)cc(Nc2nccc(-c3cnn4ncccc34)n2)c1 test_result=97.9
molecule=OCCn1cc(-c2cnc3nnn(Cc4ccc5ncccc5c4)c3n2)cn1 test_result=0
molecule=COc1cc2nccc(Nc3ccc(Oc4ccccc4)cc3)c2cc1OC.Cl test_result=11
molecule=C[C@@H](Oc1cc(-n2cnc3cc(-c4cnn(C)c4)ccc32)sc1C(N)=O)c1ccccc1Cl test_result=4
molecule=CC(C)S(=O)(=O)N1CCN(Cc2ccc3c(c2)nc(NC(=O)c2ccsc2)n3C[C@H](O)c2ccccc2)CC1 test_result=1
molecule=C[C@@H]1CNc2c(sc3ccc4nc(-c5ccncc5)ccc4c23)C(=O)N1 test_result=4
molecule=O=C(Nc1cccc(C(F)(F)F)c1)c1cccc(Oc2ccc3nccn3n2)c1 test_result=20
molecule="COc1ccc(Nc2nccc(N3CCC(NC(=O)c4cccc(C#N)c4)C3)n2)cc1 (stereo not drawn)" test_result=0
molecule=CCN1CCN(CCCC(=O)Nc2n[nH]c3nc(-c4ccc(O)cc4)c(Br)cc23)CC1 test_result=0
molecule=COC(=O)Nc1nc2cc(Oc3ccc(NC(=O)Nc4cc(C(F)(F)F)ccc4Cl)cc3)ccc2[nH]1.Cl test_result=3
molecule=Cc1n[nH]c2cc(Nc3ccnc(Nc4cccc(CN5CCOCC5)c4)n3)ccc12 test_result=26
molecule=CN1CCN(CCNc2nc3cc(Oc4ccc(NC(=O)Nc5cc(C(F)(F)F)ccc5F)cc4)ccc3[nH]2)CC1.Cl.Cl test_result=0
molecule=Cn1cc(-c2cccc3c(N)c(C(N)=O)nnc23)cn1 test_result=67
molecule=CC(=O)Nc1ccc(-c2cc3ncnc(SCC(=O)O)c3s2)cc1 test_result=95.1

---

System: FLT4
Details: concentration: 1 μM,replicates: in singlicate; n = 1
We label by threshold. Values of %Inh strictly beneath 80% are Condition met. Values of 80% and up are Condition not met.

compound=Cn1ccc2ncnc(Oc3ccc(NC(=O)Nc4cc(C(C)(C)C)on4)c(Cl)c3)c21 category_label="Condition not met"
compound=Cn1ccc2ncnc(Oc3ccc(NC(=O)Nc4cccc(C(F)(F)F)c4)c(Cl)c3)c21 category_label="Condition not met"
compound=Cn1ccc2ncnc(Oc3ccc(NC(=O)Nc4cncc(C(F)(F)F)c4)c(Cl)c3)c21 category_label="Condition not met"
compound="Cc1n[nH]c2cc(Nc3ccnc(Nc4cccc(CN5CCOCC5)c4)n3)ccc12 [GW682569]" category_label="Condition met"
compound=O=C(Nc1cccc(Oc2ccc3nccn3n2)c1)Nc1cccc(C(F)(F)F)c1 category_label="Condition not met"
compound=CS(=O)(=O)c1cccc(CNc2nc(Nc3ccc4c(c3)[C@@H]3C[C@@H]4CNC3=O)ncc2C(F)(F)F)c1 category_label="Condition not met"
compound="CCn1c(-c2nonc2N)nc2cncc(CNC3CCNCC3)c21.Cl [SB-747651]" category_label="Condition met"
compound=CN(c1ccccc1CNc1nc(Nc2ccc3c(c2)CC(=O)N3)ncc1C(F)(F)F)S(C)(=O)=O category_label="Condition not met"
compound="CC(=O)c1c(-c2ccncc2)[nH]c(-c2ccncc2)c1C [GW493036]" category_label="Condition met"
compound="Nc1nccc(-c2ccc3c(N)n[nH]c3c2)n1 [GSK1034945]" category_label="Condition met"
compound="Cc1ccn2nc(-c3ccc(F)cc3)c(-c3ccncc3)c2c1.Cl [GW457859]" category_label="Condition met"
compound="C[C@@H](Oc1cc(-n2cnc3ccc(-c4ccncc4)cc32)sc1C(N)=O)c1ccccc1Cl [GSK483724]" category_label="Condition met"
compound="Cc1cccc(-c2nc(Nc3ccncc3)c3sccc3n2)n1 [GW869641]" category_label="Condition met"
compound="COc1cccc(C2=C(Nc3cccc(Cl)c3)C(=O)NC2=O)c1 [SB-341556]" category_label="Condition met"
compound=OCCn1cc(-c2cnc3nnn(Cc4ccc5ncccc5c4)c3n2)cn1 category_label="Condition met"
compound="NC(=O)Nc1sc(-c2ccc(F)cc2)cc1C(N)=O [GW789449]" category_label="Condition met"
compound="COc1cccc(CNC(=O)NC2CCN(c3ccnc(Nc4cc(OC)c(OC)c(OC)c4)n3)C2)c1 (stereo not drawn) [GSK1379765]" category_label="Condition met"
compound="CCNCC(Cc1ccccc1)NC(=O)c1cc(Br)c(-c2ccnc3[nH]ccc23)s1.Cl.Cl (stereo not drawn) [GSK1383280]" category_label="Condition met"

---

# %Inh annotations
Tested on: MAP4K4
Settings: concentration: 1 μM,replicates: in singlicate; n = 1
value kind: %Inh (%)

compound="CN1CCN(CCCNc2nccc(-c3c(-c4ccc(F)cc4)nn4cc(C(N)=O)ccc34)n2)CC1 [GW622475]" target=MAP4K4 test_result=65
compound=Cn1ccc2ncnc(Oc3ccc(NC(=O)Nc4ccnc(C(F)(F)F)c4)c(Cl)c3)c21 target=MAP4K4 test_result=0
compound="CNC(=O)c1ccccc1Nc1nc(Nc2cccc(CS(C)(=O)=O)c2)ncc1C.O=CO [GSK1520489]" target=MAP4K4 test_result=0
compound="COC(=O)c1cccc(NC(=O)NC2CCN(c3ccnc(Nc4cc(OC)c(OC)c(OC)c4)n3)C2)c1 (stereo not shown) [GSK1379767]" target=MAP4K4 test_result=15

---

Test system: STK33
Conditions: concentration: 1 μM,replicates: in singlicate; n = 1
We label by threshold. Values of %Inh strictly beneath 20% are met. Values of 20% and up are not met.

molecule=Cn1ccc2ncnc(Oc3ccc(NC(=O)Nc4cncc(C(F)(F)F)c4)c(Cl)c3)c21 category_label=met
molecule="COc1cc2nccc(Nc3ccc(Oc4ccccc4)cc3)c2cc1OC.Cl [GI261656]" category_label=met
molecule="COc1ccc(Nc2nccc(N3CCC(NC(=O)c4cccc(C#N)c4)C3)n2)cc1 (stereo not drawn) [GSK1379730]" category_label=met
molecule="CCn1c(-c2nonc2N)nc2cncc(Br)c21 [SB-738004]" category_label=met
molecule="Cc1ccc2c(-c3ccnc(Nc4ccc(C(F)(F)F)cc4)n3)cnn2n1 [GW819776]" category_label="not met"
molecule="NC(=O)Nc1sc(-c2ccc(F)cc2)cc1C(N)=O [GW789449]" category_label=met
molecule="Cl.Nc1n[nH]c2cc(-c3ccccn3)ccc12 [GSK2189892]" category_label=met
molecule=O=C(Nc1cccc(C(F)(F)F)c1)c1cccc(Oc2ccc3nccn3n2)c1 category_label="not met"
molecule="COC(=O)c1cccc(NC(=O)NC2CCN(c3ccnc(Nc4cc(OC)c(OC)c(OC)c4)n3)C2)c1 (stereo not drawn) [GSK1379767]" category_label=met
molecule=Cn1ccc2ncnc(Oc3ccc(NC(=O)Nc4cc(C(C)(C)C)on4)c(Cl)c3)c21 category_label="not met"
molecule="Cc1ccc(Nc2ccnc(Nc3ccc4c(c3)CS(=O)(=O)C4)n2)cc1O.Cl [GW579362]" category_label="not met"
molecule="CS(=O)c1ccc(-c2coc3ccc(-c4n[nH]c(=O)o4)cc23)cc1 (stereo not drawn)" category_label=met
molecule="Cl.Cl.NC[C@H](CC1CCCCC1)NC(=O)c1ccc(-c2ccnc3[nH]ccc23)s1 [GSK1581428]" category_label="not met"
molecule="C[C@@H](Oc1cc(-n2cnc3ccc(-c4ccncc4)cc32)sc1C(N)=O)c1ccccc1Cl [GSK483724]" category_label=met
molecule=CC(=O)Nc1ccc(-c2cc3ncnc(SCC(=O)O)c3s2)cc1 category_label=met

---

System: TRKA
Construct: gene NTRK1
Details: concentration: 1 μM,replicates: in singlicate; n = 1
# %Inh annotations
value kind: %Inh (%)

compound=O=C(Nc1cccc(Oc2ccc3nccn3n2)c1)Nc1cccc(C(F)(F)F)c1 unit_of_measure=% test_result=76
compound=CCn1c(-c2nonc2N)nc2cncc(CNC3CCNCC3)c21.Cl unit_of_measure=% test_result=0
compound="COc1ccc(Nc2nccc(N3CCC(NC(=O)c4cccc(C#N)c4)C3)n2)cc1 (centres unmarked)" unit_of_measure=% test_result=40
compound="COc1cc(Nc2nccc(N3CCC(NC(=O)c4cccc(C#N)c4)C3)n2)cc(OC)c1OC (centres unmarked)" unit_of_measure=% test_result=60
compound=NC(=O)c1ccc(-c2cc3ncnc(SCC(=O)O)c3s2)cc1 unit_of_measure=% test_result=54

---

Test system: RIPK1
Details: concentration: 1 μM,replicates: in singlicate; n = 1
value kind: %Inh (%)

smiles_entry=C[C@@H]1CNc2c(sc3ccc4nc(-c5ccc(O)cc5)ccc4c23)C(=O)N1 value_kind=%Inh unit_of_measure=% test_result=0
smiles_entry=CC(=O)Nc1nc2cnc(Nc3cc(NC(=O)c4cccc(CC(C)(C)C#N)c4)ccc3C)nc2s1 value_kind=%Inh unit_of_measure=% test_result=0
smiles_entry=CN1CCN(CCCNc2nccc(-c3c(-c4ccc(F)cc4)nn4cc(C(N)=O)ccc34)n2)CC1 value_kind=%Inh unit_of_measure=% test_result=10
smiles_entry=CC(C)S(=O)(=O)N1CCN(Cc2ccc3c(c2)nc(NC(=O)c2ccsc2)n3C[C@H](O)c2ccccc2)CC1 value_kind=%Inh unit_of_measure=% test_result=20
smiles_entry=C[C@@H](Oc1cc(-n2cnc3cc(-c4cnn(C)c4)ccc32)sc1C(N)=O)c1ccccc1Cl value_kind=%Inh unit_of_measure=% test_result=39
smiles_entry=O=C1NCCc2[nH]c(-c3ccncc3)cc21 value_kind=%Inh unit_of_measure=% test_result=4
smiles_entry=Cc1n[nH]c2cc(Nc3ccnc(Nc4cccc(CN5CCOCC5)c4)n3)ccc12 value_kind=%Inh unit_of_measure=% test_result=4
smiles_entry=COc1cccc(C2=C(Nc3cccc(Cl)c3)C(=O)NC2=O)c1 value_kind=%Inh unit_of_measure=% test_result=0
